Target or system Thymidylate synthase (Lactobacillus casei, UniProt P00469); metric IC50; compiled from varied reports.
recorded-endpoint: IC50 (µM)

(a) C#CCN(Cc1cnc2nc(N)[nH]c(=O)c2n1)c1ccc(C(=O)NC(CCC(=O)O)C(=O)O)cc1 (centres undefined)
(b) Cc1c(CCc2ccc(C(=O)NC(CCC(=O)O)C(=O)O)cc2)cnc2nc(N)[nH]c(=O)c12 (centres undefined)
(c) O=c1[nH]c(=O)n([C@H]2C[C@H](O)[C@@H](CCP(=O)(O)O)O2)cc1F
Query :: Please give the order of these compounds when sorted by IC50, largest value leading. Provide the labels, sequenced as the question asks.
Result :: b, c, a
(b: 44 µM, c: 7 µM, a: 3.9 µM)
